Data provenance is the supplement of paper PMC11208160.

# Protocol: recombinant UMI read abundance after kanamycin selection (control-corrected) (log10(CPM+1)); higher = more efficient recombination; extreme values may be limits of the assay; sequences stand for … in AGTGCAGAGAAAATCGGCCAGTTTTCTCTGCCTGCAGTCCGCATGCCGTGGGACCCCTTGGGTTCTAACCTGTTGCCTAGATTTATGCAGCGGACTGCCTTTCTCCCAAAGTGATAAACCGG…AGGTTGGTTTCACT; site = the 11-nt donor
Give t when the value for recombinant UMI read abundance (log10) is at least 0.4. Give f when it is less.

In: Quick check: does CTTCTCCCATGGACCGGTTTTCCCGGTAATCCGTATTTGTA (site CTTCTCACTTA) have recombinant UMI read abundance (log10) greater than or equal to 0.4?
Out: f

In: Quick check: does AAGTCGACATGGACCGGTTTTCCCGGTAATCCGTATTTGAA (site AAGTCGACTTT) have recombinant UMI read abundance (log10) greater than or equal to 0.4?
Out: t

In: Quick check: does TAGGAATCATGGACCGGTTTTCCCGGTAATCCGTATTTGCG (site TAGCAATCTCG) have recombinant UMI read abundance (log10) greater than or equal to 0.4?
Out: t

In: Quick check: does AGAAAGTCATGGACCGGTTTTCCCGGTAATCCGTATTTGCT (site AGAAAGTCTAG) have recombinant UMI read abundance (log10) greater than or equal to 0.4?
Out: t

In: Quick check: does ACACGTCCATGGACCGGTTTTCCCGGTAATCCGTATTTGAC (site ACACATCCTGT) have recombinant UMI read abundance (log10) greater than or equal to 0.4?
Out: f

In: Quick check: does CTCTCCTCATGGACCGGTTTTCCCGGTAATCCGTATTTGCC (site CCCTCCTCTGG) have recombinant UMI read abundance (log10) greater than or equal to 0.4?
Out: t

In: Quick check: does CGAACACCATGGACCGGTTTTCCCGGTAATCCGTATTTGCT (site CGAACACCTAG) have recombinant UMI read abundance (log10) greater than or equal to 0.4?
Out: f

In: Quick check: does ACCAAGACATGGACCGGTTTTCCCGGTAATCCGTATTTGGG (site ACCTAGACTCC) have recombinant UMI read abundance (log10) greater than or equal to 0.4?
Out: f

In: Quick check: does CACCCCTCATGGACCGGTTTTCCCGGTAATCCGTATTTGCC (site CACCCCTCTGG) have recombinant UMI read abundance (log10) greater than or equal to 0.4?
Out: t

====

# Protocol: recombinant barcode read abundance after kanamycin selection (control-corrected) (log10(CPM+1)); higher = more efficient recombination; sequences stand for … in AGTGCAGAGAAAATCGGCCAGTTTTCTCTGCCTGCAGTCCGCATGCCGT…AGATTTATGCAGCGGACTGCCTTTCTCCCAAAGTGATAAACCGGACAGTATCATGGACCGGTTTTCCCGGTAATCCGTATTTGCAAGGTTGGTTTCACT; site = the 11-nt target
Give true when the value for recombinant barcode read abundance (log10) is at least 0.06. Give false when it is less.

Examples with answers:
[
  {
    "Monomer sequence": "ACACCGCCTTGGGTTCTAACCTGTTGCCT (site CCACCGCCTAG)",
    "Category": "true"
  },
  {
    "Monomer sequence": "AACTTAACTTGGGTTCTAACCTGTTGCCT (site AACTCAACTAG)",
    "Category": "false"
  }
]

In: Quick check: does CACCCACCTTGGGTTCTAACCTGTTGCCT (site TACCCACCTAG) have recombinant barcode read abundance (log10) greater than or equal to 0.06?
Out: false

In: Quick check: does ACAGTATCTTGGGTTCTAACCTGTTGCTG (site TGCAATACTAT) have recombinant barcode read abundance (log10) greater than or equal to 0.06?
Out: false

In: Quick check: does TAGGCCACTTGGGTTCTAACCTGTTGCTT (site TAGGCCACTAA) have recombinant barcode read abundance (log10) greater than or equal to 0.06?
Out: true

====

# Protocol: recombinant barcode read abundance after kanamycin selection (control-corrected) (log10(CPM+1)); higher = more efficient recombination; sequences stand for … in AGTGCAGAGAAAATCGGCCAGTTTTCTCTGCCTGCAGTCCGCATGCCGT…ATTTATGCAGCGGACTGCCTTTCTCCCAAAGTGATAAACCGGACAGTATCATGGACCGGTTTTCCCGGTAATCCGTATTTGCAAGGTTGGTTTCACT; site = the 11-nt target
Assay endpoint: recombinant barcode read abundance (log10)

In: Look up and state reported recombinant barcode read abundance (log10) for GCGCGACAATGGGTTCTAACCTGTTGCTTTT [GCGCGACCTAA_LTGcore_AA_RTGcore_AA] (site GCGCGACCTAA) (LTG core: AA, RTG core: AA)
Out: 0.188

In: Look up and state reported recombinant barcode read abundance (log10) for GAGTCCAGCTGGGTTCTAACCTGTTGCGTAG [GAGTCCACTAC_LTGcore_GC_RTGcore_CT] (site GAGTCCACTAC) (LTG core: GC, RTG core: CT)
Out: 0.0179

In: Look up and state reported recombinant barcode read abundance (log10) for AAACATGCTTGGGTTCTAACCTGTTGCCTAT [AAACATGCTAG_LTGcore_CT_RTGcore_AT] (site AAACATGCTAG) (LTG core: CT, RTG core: AT)
Out: 0.681

====

# Protocol: recombinant barcode read abundance after kanamycin selection (control-corrected) (log10(CPM+1)); higher = more efficient recombination; sequences stand for … in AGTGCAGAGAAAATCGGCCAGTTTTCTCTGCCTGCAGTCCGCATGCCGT…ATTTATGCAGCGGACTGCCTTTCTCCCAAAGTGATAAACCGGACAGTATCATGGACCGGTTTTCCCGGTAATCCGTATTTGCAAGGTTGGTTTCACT; site = the 11-nt target
Let's look at some sequences and their measured recombinant barcode read abundance (log10).
Write the number on its own, no unit after it.

Solved cases below.
[
  {
    "Monomer sequence": "GAGCCCACTTGGGTTCTAACCTGTTGCCTCC [GAGCCCACTAG_LTGcore_CT_RTGcore_GG] (site GAGCCCACTAG) (LTG core: CT, RTG core: GG)",
    "Observed": 0.136
  },
  {
    "Monomer sequence": "GGCTCCCTTTGGGTTCTAACCTGTTGCGGAG [GGCTCCCCTCC_LTGcore_TT_RTGcore_CT] (site GGCTCCCCTCC) (LTG core: TT, RTG core: CT)",
    "Observed": 0.0927
  },
  {
    "Monomer sequence": "TCTACCCTGTGGGTTCTAACCTGTTGCTGAG [TCTACCCCTCA_LTGcore_TG_RTGcore_CT] (site TCTACCCCTCA) (LTG core: TG, RTG core: CT)",
    "Observed": 0.0669
  },
  {
    "Monomer sequence": "AGGCGGGATTGGGTTCTAACCTGTTGCGGAG [AGGCGGGCTCC_LTGcore_AT_RTGcore_CT] (site AGGCGGGCTCC) (LTG core: AT, RTG core: CT)",
    "Observed": 0.447
  },
  {
    "Monomer sequence": "GCGGGACGTTGGGTTCTAACCTGTTGCCTAC [GCGGGACCTAG_LTGcore_GT_RTGcore_GT] (site GCGGGACCTAG) (LTG core: GT, RTG core: GT)",
    "Observed": 0.163
  }
]

In: Look up and state reported recombinant barcode read abundance (log10) for AAACATGCTTGGGTTCTAACCTGTTGCCTCA [AAACATGCTAG_LTGcore_CT_RTGcore_TG] (site AAACATGCTAG) (LTG core: CT, RTG core: TG)
Out: 0.288

In: Look up and state reported recombinant barcode read abundance (log10) for AAACAGTTTTGGGTTCTAACCTGTTGCCTAA [AAACAGTCTAG_LTGcore_TT_RTGcore_TT] (site AAACAGTCTAG) (LTG core: TT, RTG core: TT)
Out: 0.182

In: Look up and state reported recombinant barcode read abundance (log10) for TGTATTCCTTGGGTTCTAACCTGTTGCCTCA [TGTATTCCTAG_LTGcore_CT_RTGcore_TG] (site TGTATTCCTAG) (LTG core: CT, RTG core: TG)
Out: 0.1

====

Let's look at some sequences and their measured recombinant barcode read abundance (log10).
# Protocol: recombinant barcode read abundance after kanamycin selection (control-corrected) (log10(CPM+1)); higher = more efficient recombination; sequences stand for … in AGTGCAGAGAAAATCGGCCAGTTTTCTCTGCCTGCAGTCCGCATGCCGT…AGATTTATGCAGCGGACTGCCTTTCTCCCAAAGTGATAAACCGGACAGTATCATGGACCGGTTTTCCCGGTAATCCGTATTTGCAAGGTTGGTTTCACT; site = the 11-nt target
Write the number on its own, no unit after it.

Solved cases below.
[
  {
    "Monomer sequence": "CGAGGCCCTTGGGTTCTAACCTGTTGCTT (site CGAGGCCCTAA)",
    "Observed": 1.93
  },
  {
    "Monomer sequence": "CGACAGTCTTGGGTTCTAACCTGTTGCCT (site TAGATTCCTTT)",
    "Observed": 0.201
  },
  {
    "Monomer sequence": "CTAACTCCTTGGGTTCTAACCTGTTGCTG (site CTAACTGCTCC)",
    "Observed": 0.524
  },
  {
    "Monomer sequence": "TCTGTCTCTTGGGTTCTAACCTGTTGCCT (site TCTGTCTCTAG)",
    "Observed": 2.03
  },
  {
    "Monomer sequence": "TTAAGTCCTTGGGTTCTAACCTGTTGCAT (site TTAAGTCCTAT)",
    "Observed": 0.498
  },
  {
    "Monomer sequence": "AGTCATACTTGGGTTCTAACCTGTTGCTT (site AGTCATACTAA)",
    "Observed": 0.199
  },
  {
    "Monomer sequence": "ACCTTGTCTTGGGTTCTAACCTGTTGCCT (site ACATTGTCTAG)",
    "Observed": 0.217
  },
  {
    "Monomer sequence": "GCCGAGCCTTGGGTTCTAACCTGTTGCCA (site TAGTGAACTGT)",
    "Observed": 0.432
  },
  {
    "Monomer sequence": "CAACTAGCTTGGGTTCTAACCTGTTGCAT (site CAACTAGCTAT)",
    "Observed": 0.691
  }
]

// next entry
In: Look up and state reported recombinant barcode read abundance (log10) for GTTTGAGCTTGGGTTCTAACCTGTTGCCT (site GTTTGAGCTAG)
Out: 0.625
